Experiment: qHTS RealTime-Glo MT Cell Viability Assay in HepG2 cells - 8 hour (AID 1224873); note: nearly all actives have a fitted effect of over 55% in size
Conditions: RealTime-Glo luminescence; series mostly up to 76.8 µM
Records with an inconclusive call do not appear. Active and inactive are the calls of the source. Calls come from the whole dose curve; as a rule, active = well fitted cell-killing curve with a large enough effect in the repeat runs; inconclusive = weak or mixed curves; inactive = flat fitted curve, though single readings scatter.
PARAMETER: outcome

>>> print(df.to_string())
                                smiles_code  parameter  measurement
0                             c1ccc2occc2c1    outcome     inactive
1                Nc1ccc(F)c([N+](=O)[O-])c1    outcome     inactive
2                                     CCSCC    outcome     inactive
3  CCN(CC)c1ccc2c(c1)Oc1cc(N(CC)CC)ccc1C21OC(=O)c2ccccc21    outcome     inactive
